Target: T1, soluble gp34 ectodomain W65F, V5-His tagged (sgp34mtrp-V5-His) (HCMV strain AD169)
T1 construct: signal peptide 1-23 left out; V5 and His tags are in the entry; Forms only monomers and dimers; also called sol gp34mtrp; gp34 1-179 W65F
T1 chain: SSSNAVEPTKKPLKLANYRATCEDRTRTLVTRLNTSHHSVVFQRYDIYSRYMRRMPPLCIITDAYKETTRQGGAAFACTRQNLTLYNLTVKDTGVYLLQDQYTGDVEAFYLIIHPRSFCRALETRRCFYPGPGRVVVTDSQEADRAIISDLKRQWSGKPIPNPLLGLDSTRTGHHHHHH
Test: ELISA mtrp

BINDER | binding result
gp34mtrp.01 (antibody, V domains shown, mouse IgG1 hybridoma mAb; leader in entries; also called anti gp34 clone mtrp.01) VH: QVKLEESGAELVKPGASVKLSCTGSGFNIKDIYMDWVKQRPEQGLEWIGRIDPANGNSKYDPKFQGKATITVDTSSNTAYLQLSSLTSEDTAVYYCASYYGSSYNYWGQGTTLTVSS VL: DIVITQTPPSVPVTPGESVSISCRSSKSLLHSNGNTYLYWFLQRPGQSPQLLIYRMSNLASGVPDRFSGSGSGTAFTLRISRVEAEDVGVYYCMQHLEYPLTFGAGTKLELKRADAAPTVS | binds
gp34mtrp.02 (antibody, V domains shown, mouse IgG1 hybridoma mAb; leader in entries; also called anti gp34 clone mtrp.02) VH: QVKLEQSGAELVKPGASVKLSCTGSGFNIKDIYMDWVKQRPEQGLEWIGRIDPANGNSKYDPKFQGKATITVDTSSNTAYLQLSSLTSEDTAVYYCASYYGSSYNYWGQGTTLTVSS VL: DIVITQTPPSVPVTPGESVSISCRSSKSLLHSNGNTYLYWFLQRPGQSPQLLIYRMSNLASGVPDRFSGSGSGTAFTLRISRVEAEDVGVYYCMQHLEYPLTFGAGTKLELKRADAAPTVS | binds

Reference source for all entries: patent US20250270295A1
